# Test system: H3255
# protocol details: relative viability (nuclei count vs DMSO), 5 days (fraction); higher = more cells survive
# experimental setup: first compound 0.04 µM

compound: Cc1sc2c(c1C)C(c1ccc(Cl)cc1)=N[C@@H](CC(=O)OC(C)(C)C)c1nnc(C)n1-2 [JQ1] + Nc1ncn([C@H]2C[C@H](O)[C@@H](CO)O2)c(=O)n1 [Decitabine] (partner 2 µM)
assay target: H3255
relative viability: 0.562
--
compound: Cc1sc2c(c1C)C(c1ccc(Cl)cc1)=N[C@@H](CC(=O)OC(C)(C)C)c1nnc(C)n1-2 [JQ1] + CS(=O)(=O)CCNCc1ccc(-c2ccc3ncnc(Nc4ccc(OCc5cccc(F)c5)c(Cl)c4)c3c2)o1 [Lapatinib] (partner 2 µM)
assay target: H3255
relative viability: 0.226
--
compound: Cc1sc2c(c1C)C(c1ccc(Cl)cc1)=N[C@@H](CC(=O)OC(C)(C)C)c1nnc(C)n1-2 [JQ1] + CC(C)C[C@H](NC(=O)[C@H](Cc1ccccc1)NC(=O)c1cnccn1)B(O)O [Bortezomib] (partner 0.002 µM)
assay target: H3255
relative viability: 0.628
--
compound: Cc1sc2c(c1C)C(c1ccc(Cl)cc1)=N[C@@H](CC(=O)OC(C)(C)C)c1nnc(C)n1-2 [JQ1] + C[C@]1(O)C[C@@H](c2nc(-c3ccc4ccc(-c5ccccc5)nc4c3)c3c(N)nccn32)C1 [Linsitinib] (partner 1 µM)
assay target: H3255
relative viability: 0.913
